Molecular target: hPTP1B (Homo sapiens)
Construct: The catalytic structural domain of hPTP1B was expressed in E-coli system by a molecular biology protocol; made in house; host or cells: E. coli
Assay: PTP1B inhibition test (pNPP hydrolysis, absorption at 410 nm)
Type: biochemical
Conditions: recombinant hPTP1B catalytic domain 40 nM, 2 mM pNPP, pH 7.0, 2% DMSO; read-out: IC50(μM), inhibitory activity of the test compounds against PTP1B
Quantity: IC50 (µM)
Give the value, in units of µM, as a plain number.

Query: State the measured IC50 (hPTP1B (Homo sapiens)) of CCOC(=O)/C(C)=C\C(C)=C\c1csc([C@H](Cc2ccc(OCc3ccccc3)cc2)NC(=O)C(=O)c2ccccc2)n1 [WY594]
Response: 6.92

Query: State the measured IC50 (hPTP1B (Homo sapiens)) of CCOC(=O)/C(C)=C\C(C)=C\c1csc([C@H](Cc2ccc(O)cc2)NC(=O)C2CCCCC2)n1 [WY482h]
Response: 27.8

Query: State the measured IC50 (hPTP1B (Homo sapiens)) of CCOC(=O)/C(C)=C\C(C)=C\c1nc([C@H](Cc2ccc(OCc3ccccc3)cc2)NC(=O)C2CCCCC2)sc1C [WY586z]
Response: 4.86

Query: State the measured IC50 (hPTP1B (Homo sapiens)) of CCOC(=O)/C(C)=C\C(C)=C\c1csc([C@H](Cc2ccc(OCc3ccccc3)cc2)NC(=O)Cc2ccccc2)n1 [WY580s]
Response: 23.1

----------
Target: hPTP1B (Homo sapiens, UniProt P18031)
Construct: The catalytic structural domain of hPTP1B was expressed in E-coli system by a molecular biology protocol; made in house; host or cells: E. coli
Sequence (P18031 3-277 limits assumed): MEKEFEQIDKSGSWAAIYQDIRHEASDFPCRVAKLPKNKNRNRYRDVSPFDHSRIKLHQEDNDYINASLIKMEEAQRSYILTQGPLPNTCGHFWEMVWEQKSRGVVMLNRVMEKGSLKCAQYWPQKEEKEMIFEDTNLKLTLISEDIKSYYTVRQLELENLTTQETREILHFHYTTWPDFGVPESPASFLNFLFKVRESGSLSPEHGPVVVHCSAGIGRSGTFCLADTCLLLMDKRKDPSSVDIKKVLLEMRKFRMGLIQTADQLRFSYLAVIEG
Experiment: PTP1B inhibition test (pNPP hydrolysis, absorption at 410 nm)
Type: biochemical
Conditions: recombinant hPTP1B catalytic domain 40 nM, 2 mM pNPP, pH 7.0, 2% DMSO; read-out: IC50(μM), inhibitory activity of the test compounds against PTP1B
Please note: IC50 exactly at 20 µM is F. Only values below 20 µM get T.

Query: Given CCOC(=O)/C(C)=C\C(C)=C\c1csc([C@H](Cc2ccc(OCc3ccccn3)cc2)NC(=O)C2CCCCC2)n1 [WY573h] , is recorded IC50 strictly lower than 20 µM?
Response: F

Query: Given CCOC(=O)/C(C)=C\C(C)=C\c1csc([C@H](Cc2ccc(OCc3ccccc3)cc2)NC(=O)C2CCN(C)CC2)n1 [WY587s] , is recorded IC50 strictly lower than 20 µM?
Response: F

Query: Given CCOC(=O)/C(C)=C\C(C)=C\c1csc([C@H](Cc2ccc(OC)cc2)NC(=O)C2CCCCC2)n1 [WY496h] , is recorded IC50 strictly lower than 20 µM?
Response: F

Query: Given CCOC(=O)/C(C)=C\C(C)=C\c1csc([C@H](Cc2ccc(OCCO)cc2)NC(=O)C2CCCCC2)n1 [WY526h] , is recorded IC50 strictly lower than 20 µM?
Response: F

Query: Given CCOC(=O)/C(C)=C\C(C)=C\c1csc([C@H](Cc2ccc(OCc3ccccc3)cc2)NC(=O)COC(C)=O)n1 [WY562s] , is recorded IC50 strictly lower than 20 µM?
Response: F

Query: Given CCOC(=O)/C(C)=C\C(C)=C\c1csc([C@H](Cc2ccc(OCc3ccccc3)cc2)NC(=O)C2CCCCC2)n1 [WY572s] , is recorded IC50 strictly lower than 20 µM?
Response: T

Query: Given CCOC(=O)/C(C)=C\C(C)=C\c1csc([C@H](Cc2ccc(OCc3ccccc3)cc2)NC(=O)c2ccccc2)n1 [WY566s] , is recorded IC50 strictly lower than 20 µM?
Response: T

Query: Given CCOC(=O)/C(C)=C\C(C)=C\c1csc([C@H](Cc2ccc(OCc3ccccc3)cc2)NC(=O)C(O)C2CCCCC2)n1 (stereo partly drawn) , is recorded IC50 strictly lower than 20 µM?
Response: T

Query: Given CCOC(=O)/C(C)=C\C(C)=C\c1csc([C@H](Cc2ccc(OC(C)C(=O)OCC)cc2)NC(=O)C2CCCCC2)n1 (stereo partly drawn) [WY582h] , is recorded IC50 strictly lower than 20 µM?
Response: F

Query: Given CCOC(=O)/C(C)=C\C(C)=C\c1csc([C@H](Cc2ccccc2)NC(=O)C2CCCCC2)n1 [WY466h] , is recorded IC50 strictly lower than 20 µM?
Response: F

Query: Given CCOC(=O)/C(C)=C\C(C)=C\c1nc([C@H](Cc2ccc(OCc3ccccc3)cc2)NC(=O)C2CCCCC2)sc1-c1ccccc1 [WY648z] , is recorded IC50 strictly lower than 20 µM?
Response: T

Query: Given CCOC(=O)/C(C)=C\C(C)=C\c1csc([C@H](Cc2ccc(OCc3ccccc3)cc2)NC(=O)C(=O)COCc2ccccc2)n1 , is recorded IC50 strictly lower than 20 µM?
Response: T

Query: Given C/C(=C/C(C)=C/c1csc([C@H](Cc2ccc(OCc3ccccc3)cc2)NC(=O)C2CCCCC2)n1)C(=O)O [WY544a] , is recorded IC50 strictly lower than 20 µM?
Response: T

Query: Given CCCCOc1ccc(C[C@H](NC(=O)C2CCCCC2)c2nc(/C=C(C)/C=C(/C)C(=O)OCC)cs2)cc1 [WY538h] , is recorded IC50 strictly lower than 20 µM?
Response: F

Query: Given CCOC(=O)/C(C)=C\C(C)=C\c1csc([C@H](Cc2ccc(OCc3ccc(F)cc3)cc2)NC(=O)C2CCCCC2)n1 [WY590h] , is recorded IC50 strictly lower than 20 µM?
Response: F

Query: Given CCOC(=O)/C(C)=C\C(C)=C\c1nc([C@H](Cc2ccc(OCc3ccccc3)cc2)NC(=O)C2CCCCC2)sc1CC(C)C [WY628z] , is recorded IC50 strictly lower than 20 µM?
Response: T

Query: Given CCOC(=O)/C(C)=C\C(C)=C\c1csc([C@H](Cc2ccc(OCc3ccccc3)cc2)NC(=O)C(=O)c2ccc[nH]2)n1 , is recorded IC50 strictly lower than 20 µM?
Response: F

Query: Given CCOC(=O)/C(C)=C\C(C)=C\c1csc([C@H](Cc2ccc(OCc3ccc(C#N)cc3)cc2)NC(=O)C2CCCCC2)n1 [WY597h] , is recorded IC50 strictly lower than 20 µM?
Response: F

Query: Given CCOC(=O)COc1ccc(C[C@H](NC(=O)C2CCCCC2)c2nc(/C=C(C)/C=C(/C)C(=O)OCC)cs2)cc1 [WY568h] , is recorded IC50 strictly lower than 20 µM?
Response: F

Query: Given CCOC(=O)/C(C)=C\C(C)=C\c1csc([C@H](Cc2ccc(OCc3cccc(F)c3)cc2)NC(=O)C2CCCCC2)n1 , is recorded IC50 strictly lower than 20 µM?
Response: F

Query: Given CCOC(=O)/C(C)=C\C(C)=C\c1csc([C@H](Cc2ccc(OCc3ccccc3F)cc2)NC(=O)C2CCCCC2)n1 , is recorded IC50 strictly lower than 20 µM?
Response: F
